The measurements presented in this section are drawn from ChEMBL document CHEMBL2440016.

We begin with a simple list: items and their reported Ratio CC50/IC50.
# Procedure Details: Selectivity index, ratio of CC50 for mouse J774.1 cells to IC50 for Leishmania donovani MHOM/IN/00/DEVI
# Format: functional
Please reply with the value in numeric form only.

// known answers, use as guide
Mol Smiles | Quantitative Readout
O=[N+]([O-])c1c(CS(=O)(=O)c2ccccc2)nc2ccc(Br)cn12 | 2.5
Cc1ccc(S(=O)(=O)Cc2nc3ccc(Br)cn3c2[N+](=O)[O-])cc1 | 1
Cc1ccc(S(=O)(=O)Cc2nc3ccc(I)cn3c2[N+](=O)[O-])cc1 | 0.9
O=[N+]([O-])c1c(CS(=O)(=O)c2ccc(Br)cc2)nc2ccc(Br)cn12 | 1.1
O=[N+]([O-])c1c(CCl)nc2ccc(Br)cn12 | 0.5

Entry O=[N+]([O-])c1c(CS(=O)(=O)c2ccc(Cl)cc2)nc2ccc(Cl)cn12 has what Ratio CC50/IC50?
1.8
